# Tested on: Enterococcus faecium
# Assay Explanation: Antibacterial activity against Enterococcus faecium clinical isolates after 18 to 22 hrs by broth microdilution method
# Assay type: functional
Reported Endpoint: MIC50
Quick note: unit goes after the number.

Need MIC50 for each of these compounds.
1. CN[C@H](CC(C)C)C(=O)N[C@H]1C(=O)N[C@@H](CC(N)=O)C(=O)N[C@H]2C(=O)N[C@H]3C(=O)N[C@H](C(=O)N[C@H](C(=O)O)c4cc(O)cc(O)c4-c4cc3ccc4O)[C@H](O)c3ccc(c(Cl)c3)Oc3cc2cc(c3O[C@@H]2O[C@H](CO)[C@@H](O)[C@H](O)[C@H]2O[C@H]2C[C@](C)(N)[C@H](O)[C@H](C)O2)Oc2ccc(cc2Cl)[C@H]1O
2. CC(=O)NC[C@H]1CN(c2ccc(N3CCOCC3)c(F)c2)C(=O)O1

1 µg/mL
2 µg/mL

Need MIC50 for each of these compounds.
1. C/C(=N\NC(=N)N)c1sc(-c2ccc(-c3ccccc3)cc2)nc1C
2. CCCCC#Cc1ccc(-c2nc(C)c(/C(C)=N/NC(=N)N)s2)cc1

8 µg/mL
4 µg/mL

----------
# Assay Explanation: Inhibition of Escherichia coli UPPS using IPP and FPP as substrate preincubated for 30 mins followed by substrate addition measured after 20 mins by malachite green phosphate assay
Reported Endpoint: IC50 (µM)
Numbers only, in µM.

Look up IC50 for this compound: CCCCc1ccc(-c2nc(C)c(/C(C)=N/NC(=N)N)s2)cc1 19

----------
# Tested on: Enterobacter cloacae
# Assay Explanation: Antibacterial activity against Enterobacter cloacae BAA-1154 after 18 to 22 hrs in absence of colistin by broth microdilution method
# Assay type: functional
Reported Endpoint: MIC (µg/mL)
One number for each entry, in µg/mL.

Need MIC for each of these molecules.
1. CCCCc1ccc(-c2nc(C)c(/C(C)=N/NC(=N)N)s2)cc1
2. CC[C@H]1OC(=O)[C@H](C)[C@@H](O[C@H]2C[C@@](C)(OC)[C@@H](O)[C@H](C)O2)[C@H](C)[C@@H](O[C@@H]2O[C@H](C)C[C@H](N(C)C)[C@H]2O)[C@](C)(O)C[C@@H](C)C(=O)[C@H](C)[C@@H](O)[C@]1(C)O [ERYTHROMYCIN]

64
128

----------
# Tested on: Enterococcus faecium
# Assay Explanation: Bactericidal activity against Vancomycin-resistant Enterococcus faecium clinical isolates after 18 to 22 hrs by broth microdilution method
# Assay type: functional
Give MBC50 for every item shown.

{"columns": ["Compound", "MBC50"],
 "data": [
  ["CC(=O)NC[C@H]1CN(c2ccc(N3CCOCC3)c(F)c2)C(=O)O1 [LINEZOLID]", "128 µg/mL"],
  ["C/C(=N\\NC(=N)N)c1sc(-c2ccc(-c3ccccc3)cc2)nc1C", "16 µg/mL"],
  ["CCCCC#Cc1ccc(-c2nc(C)c(/C(C)=N/NC(=N)N)s2)cc1", "4 µg/mL"]
]}

The record that follows has no MBC50 shown yet.
Look up MBC50 for this compound: CN[C@H](CC(C)C)C(=O)N[C@H]1C(=O)N[C@@H](CC(N)=O)C(=O)N[C@H]2C(=O)N[C@H]3C(=O)N[C@H](C(=O)N[C@H](C(=O)O)c4cc(O)cc(O)c4-c4cc3ccc4O)[C@H](O)c3ccc(c(Cl)c3)Oc3cc2cc(c3O[C@@H]2O[C@H](CO)[C@@H](O)[C@H](O)[C@H]2O[C@H]2C[C@](C)(N)[C@H](O)[C@H](C)O2)Oc2ccc(cc2Cl)[C@H]1O [VANCOMYCIN] >64 µg/mL

----------
# Test system: Klebsiella pneumoniae
# Assay Explanation: Antibacterial activity against Klebsiella pneumoniae BAA-1706 after 18 to 22 hrs in presence of 1/4 times MIC colistin by broth microdilution method
# Format: functional
Give MIC for every item shown.
Answers are plain numbers, in µg/mL.

Completed entries (count: 3):
{"columns": ["Molecular String", "Measurement Target", "Unit String", "MIC"],
 "data": [
  ["CCCCc1ccc(-c2nc(C)c(/C(C)=N/NC(=N)N)s2)cc1", "Klebsiella pneumoniae", "µg/mL", 1],
  ["C/C(=N\\NC(=N)N)c1sc(-c2ccc(-c3ccccc3)cc2)nc1C", "Klebsiella pneumoniae", "µg/mL", 2],
  ["CCCCC#Cc1ccc(-c2nc(C)c(/C(C)=N/NC(=N)N)s2)cc1", "Klebsiella pneumoniae", "µg/mL", 1]
]}

The record that follows has no MIC shown yet.
Look up MIC for this molecule: CC[C@H]1OC(=O)[C@H](C)[C@@H](O[C@H]2C[C@@](C)(OC)[C@@H](O)[C@H](C)O2)[C@H](C)[C@@H](O[C@@H]2O[C@H](C)C[C@H](N(C)C)[C@H]2O)[C@](C)(O)C[C@@H](C)C(=O)[C@H](C)[C@@H](O)[C@]1(C)O 0.5

----------
Give pEC50 for every item shown.
# Assay Explanation: Induction of proton motive force collapse in Escherichia coli inverted membrane vesicle in presence of succinate/O2-driven PMF generation system by ACMA-based fluorescence assay
# Assay type: functional, cell membranes
Numbers only, as −log10 of the molar value.

Need pEC50 for each of these molecules.
1. N#CC(C#N)=NNc1cccc(Cl)c1 [CARBONYL CYANIDE M-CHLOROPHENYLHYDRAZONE]
2. CCCCc1ccc(-c2nc(C)c(/C(C)=N/NC(=N)N)s2)cc1

1: 6.70; 2: 4.60
